# target_or_test_system: ETO2-NHR4 (Homo sapiens, UniProt O75081)
# Sequence (O75081 551-597): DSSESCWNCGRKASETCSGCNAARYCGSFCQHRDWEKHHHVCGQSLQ
# assay_method_text: 15N-HSQC chemical shift perturbation titration
# Type: binding
No end group written: not given here.
value_kind: pKd
pKd is defined as minus the log10 of a concentration measured in mol/L.

# input Form field: reported pKd of KYGASSQVVMPPLVRGAQQ-NH2 [MPPL-3]
# output 3.60

Data origin, for the record: paper PMC12107431
